Values from ChEMBL document CHEMBL6071176

Procedure Text: Selectivity index, ratio of HC50 for sheep red blood cells to MIC for Staphylococcus aureus
Type: toxicity, cell-based, RBC
Applied Conditions: read-out: Selectivity Index
Some compounds, each annotated with its measured selectivity ratio.

stdin: Which measured selectivity ratio value corresponds to `CCCCCCCC[N+](C)(C)CCCOc1cc(OCCC[N+](C)(C)CCCCCCCC)cc(OCCC[N+](C)(C)CCCCCCCC)c1.[Br-].[Br-].[Br-]` ?
stdout: > 640

stdin: And `C[N+](C)(CCCCOc1cc(OCCCC[N+](C)(C)CCCCc2ccccc2)cc(OCCCC[N+](C)(C)CCCCc2ccccc2)c1)CCCCc1ccccc1.[Br-].[Br-].[Br-]` ?
stdout: > 640

stdin: Same question, `CCCCCC[N+](C)(C)CCCCCOc1cc(OCCCCC[N+](C)(C)CCCCCC)cc(OCCCCC[N+](C)(C)CCCCCC)c1.[Br-].[Br-].[Br-]` this time
stdout: > 1280

stdin: // repeat for `CCCCCCNC(=O)C[N+](C)(C)CCCCCCCCCCCC[N+](C)(C)CC(=O)NCCCCCC.[Br-].[Br-]` and report
stdout: > 1280

stdin: Another compound to check: `CCCC[N+](C)(C)CCCCOc1cc(OCCCC[N+](C)(C)CCCC)cc(OCCCC[N+](C)(C)CCCC)c1.[Br-].[Br-].[Br-]`
stdout: > 10

stdin: Queued: `C[N+](C)(CCCOc1ccccc1)CCCOc1cc(OCCC[N+](C)(C)CCCOc2ccccc2)cc(OCCC[N+](C)(C)CCCOc2ccccc2)c1.[Br-].[Br-].[Br-]`
stdout: > 40
